# credit: ChEMBL document CHEMBL1132481

target: Monoamine transporters; Norepininephrine & dopamine (Rattus norvegicus) (UniProt P23977+Q9WTR4); test: Ratio of IC50 of NE (norepinephrine transporter) to IC50 of DA (dopamine transporter); type: protein assay
Ratio strictly less than 4 = TRUE. Otherwise FALSE.

Request: Dear colleague, could you confirm whether Ratio of CN(C)C1C2CCC(CC2O)C1c1ccccc1 (stereo in doubt; 14) falls below 4? Thanks.
Response: TRUE

Request: Dear colleague, could you confirm whether Ratio of CC(=O)OC1CC2CCC1C(N(C)C)C2c1ccccc1 (stereo in doubt; 10) falls below 4? Thanks.
Response: FALSE

Request: Dear colleague, could you confirm whether Ratio of CN(C)C1C2CCC(CC2OC(=O)c2ccccc2)C1c1ccccc1 (stereo in doubt; 19) falls below 4? Thanks.
Response: TRUE

Request: Dear colleague, could you confirm whether Ratio of CN(C)C1C2CCC(CC2O)C1c1ccccc1 (stereo in doubt; 8) falls below 4? Thanks.
Response: TRUE

Request: Dear colleague, could you confirm whether Ratio of CN(C)C1C2CCC(CC2OC(=O)c2ccccc2)C1c1ccccc1 (stereo in doubt; 12) falls below 4? Thanks.
Response: FALSE
